Each recorded value in this set is attributed to PubChem BioAssay AID624038.

# targetDesc: Muscarinic acetylcholine receptor M5 (Homo sapiens)
# protocolDescription: human M5 muscarinic receptor positive allosteric modulators, primary screen, CHO-K1 cells, Fluo-8 calcium fluorescence (AID 624038)
# setupConditions: CHO-K1 hM5, Fluo-8 calcium, ACh EC20 PAM; at 3 µM; hits give high values; 0% = ACh EC20, 100% = ACh EC100
Among all 360,000 compounds or so, about 1,100 (0.31%) were called active. What follows is part of a selection rich in actives, with near analogues and random picks from the rest.
List of activation values.
Use % as the unit, but write only the number.

These solved cases illustrate the format of a correct answer.
# molecule, measurementUnits, activation
records = [
    ("COc1cc(OC)c(NC(=O)C2CCCN2C(=O)OCc2ccccc2)cc1Cl (stereo not given)", "%", 2.68),
    ("CCN(CC)C(=O)CN(c1cccc(OC)c1)S(=O)(=O)c1ccc(C)cc1", "%", 24),
    ("CC(=O)N1c2ccc(S(=O)(=O)N3CCC(C(=O)NC4CCCCC4C)CC3)cc2CC1C (stereo not given)", "%", -5.55),
]

Simply: `COc1cccc(N(CC(=O)NC2CCCCCC2)S(=O)(=O)c2ccccc2)c1` , Muscarinic acetylcholine receptor M5 (Homo sapiens), activation = -3.45

Bench note, Muscarinic acetylcholine receptor M5 (Homo sapiens): entry `Cc1cccc(-c2noc(-c3ccc(F)cc3)n2)c1` , its activation = 18.1

Muscarinic acetylcholine receptor M5 (Homo sapiens) data for `COc1ccc(OC)c(S(=O)(=O)NCCC(C)C)c1` ; its activation: 3.29

Entry CCCCn1c(N)c(N(CCC(C)C)C(=O)CC2OC(=O)c3ccccc32)c(=O)[nH]c1=O (stereo not given) , tested on Muscarinic acetylcholine receptor M5 (Homo sapiens), has a reported activation of -2.77

Response field activation (Muscarinic acetylcholine receptor M5 (Homo sapiens)) for item `COc1ccc(OC)c(S(=O)(=O)Nc2ccccc2F)c1` : -7.66

The reported Muscarinic acetylcholine receptor M5 (Homo sapiens) activation of `CC(C)Cn1cc(-c2cncc3nccn23)cn1` is -3.57

GET /values?item= `OC[C@H]1O[C@@H](c2nc(-c3nc(-c4ccc(F)cc4)no3)cs2)[C@H](O)[C@@H](O)[C@H]1O` &system= Muscarinic acetylcholine receptor M5 (Homo sapiens) returns activation: -2.26

---

# targetDesc: Muscarinic acetylcholine receptor M5 (Homo sapiens) (UniProt P08912)
# Sequence (P08912 whole entry, looked up): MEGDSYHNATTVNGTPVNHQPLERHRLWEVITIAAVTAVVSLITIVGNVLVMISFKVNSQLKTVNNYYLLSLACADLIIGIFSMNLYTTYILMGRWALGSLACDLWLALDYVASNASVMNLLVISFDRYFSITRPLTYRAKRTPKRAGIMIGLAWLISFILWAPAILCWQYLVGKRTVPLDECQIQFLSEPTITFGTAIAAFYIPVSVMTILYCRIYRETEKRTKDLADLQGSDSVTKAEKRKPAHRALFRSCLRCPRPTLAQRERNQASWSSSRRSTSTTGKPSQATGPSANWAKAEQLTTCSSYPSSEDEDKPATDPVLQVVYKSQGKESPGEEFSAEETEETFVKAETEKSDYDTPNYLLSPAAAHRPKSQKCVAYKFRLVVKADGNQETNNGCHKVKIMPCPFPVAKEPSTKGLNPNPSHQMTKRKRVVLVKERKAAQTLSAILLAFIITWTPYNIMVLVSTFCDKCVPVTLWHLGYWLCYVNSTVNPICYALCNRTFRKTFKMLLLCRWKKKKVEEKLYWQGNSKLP
# protocolDescription: human M5 muscarinic receptor positive allosteric modulators, primary screen, CHO-K1 cells, Fluo-8 calcium fluorescence (AID 624038)
# setupConditions: CHO-K1 hM5, Fluo-8 calcium, ACh EC20 PAM; at 3 µM; 0% = ACh EC20, 100% = ACh EC100
About 1,100 (0.31%) of roughly 360,000 compounds were called active.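 Rule for the calls: active = activation above the run cutoff, the mean activation of all test compounds plus 3 SD (cut at about 18% in these data); inactive = the rest.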 For the sample, actives were picked, then their nearest neighbours and some compounds at random.
Form entry, call: pick from True (active), False (inactive)

# compound, classification
data = [
    ("Cc1cc(C)cc(C(=O)N2CCN=C2SCc2ccc([N+](=O)[O-])cc2)c1", "False"),
    ("CCCc1nc(N)nc2c1C(=O)CC(C)(C)C2", "False"),
    ("CC(C)Oc1ccc(CN2CCC(n3nccc3NC(=O)c3cccnc3)CC2)cc1", "False"),
    ("CCCCNC(=O)N(O)C1N(/N=C/c2ccccc2O)C(=S)SC1(C)C (configuration not stated)", "False"),
    ("Cc1ccc(-c2nnc(CN3CCN(C)CC3)o2)cc1", "False"),
]

Field: outcome | Entry: `Cc1nn(Cc2ccc(Cl)c(Cl)c2)c(C)c1NC(=O)c1cc(C2CC2)on1`
False

Tell me the recorded outcome of this test for `Cc1nn(Cc2ccc(F)cc2)c(C)c1NC(=O)c1cccnc1Cl` .
True

I'd appreciate the recorded outcome for `CCOC(=O)CC1(NC(=O)c2cc(COc3cncc(Cl)c3)on2)CCCCC1` from this test.
False

# lookup: test call for CCC(C)(C)n1nnnc1C(c1ccc(OC)c(OC)c1)N1CCN(C(=O)c2ccco2)CC1 (configuration not stated)
False

Given `COCCCNCC(=O)Nc1sc(C)c(C)c1C(=O)OC` , state the outcome it received in this test.
False

Recorded test outcome, item CCCCCCN1CCN(C2CN(Cc3cn(CCCCCC)nn3)S(=O)(=O)C2)CC1 (configuration not stated)
False

Just curious, what result did `CCN(C(=O)CSc1nnc(-c2ccncc2)o1)c1ccccc1` get here?
False

Could you please tell me the result logged for `CN1CCC(=NNC(=O)CN(c2cccc(Cl)c2)S(C)(=O)=O)CC1` in this assay?
False

Tell me the recorded outcome of this test for CCC(C(=O)N1CCN(S(=O)(=O)c2sc(C(=O)O)c(C)c2C(=O)O)CC1)c1ccccc1 (configuration not stated) .
False

Outcome logged for CC(=O)NC(c1ccccc1)c1nc(-c2cccc(C(C)C)c2)cs1 (configuration not stated) in this assay:
False

State the result this test recorded for `C=CCn1c(=S)[nH]c2scc(-c3ccco3)c2c1=O` .
False

How was COc1ccc(NC(=O)CC(NC(C)c2ccccc2)C(=O)O)cc1 (configuration not stated) classified in this test?
False

Please share the test call associated with `CN(Cc1ccccc1)C(=O)C(=O)c1cn(CC(=O)N2CCCC2)c2ccccc12` .
False

Each compound tested received a call. Report the one for CCCC(C)NC(=O)C1CCN(C(=O)C2CC(=O)N(c3ccc(C)cc3)C2)CC1 (configuration not stated) .
False

// outcome(item) with item = `COc1ccc(CN(C(=O)c2cccs2)c2nccs2)cc1OC`
False

Tell me the assay call for `Cc1cccc(Nc2nc(-c3ccccc3)cs2)n1` please.
True

For CN1C2CCC1CC(NC(=O)c1ccc([N+](=O)[O-])cc1)C2 (configuration not stated) , which call appears in the assay record?
False

---

# targetDesc: Muscarinic acetylcholine receptor M5 (Homo sapiens)
# protocolDescription: human M5 muscarinic receptor positive allosteric modulators, primary screen, CHO-K1 cells, Fluo-8 calcium fluorescence (AID 624038)
# setupConditions: CHO-K1 hM5, Fluo-8 calcium, ACh EC20 PAM; at 3 µM; hits give high values; 0% = ACh EC20, 100% = ACh EC100
In all, about 360,000 compounds went through this assay and about 1,100 (0.31%) were called active. This excerpt belongs to a sample that is enriched for actives.
Property: activation; scope: individual molecules
Numeric answer only, unit % assumed.

Example cases with answers are listed next.
# molecule, targetDesc, activation / %
measured = [
    ("CN(C)c1ccc(/C=N/NC(=O)c2ccc(Cn3cc(Br)cn3)o2)cc1", "Muscarinic acetylcholine receptor M5 (Homo sapiens)", -6.88),
    ("COc1cc(OC)cc(C(=O)NCC(=O)OCC(=O)NC(C)CCc2ccccc2)c1 (stereo unspecified)", "Muscarinic acetylcholine receptor M5 (Homo sapiens)", 21.1),
    ("COc1cc(C(=O)OCC(=O)NC(C)CCc2ccccc2)cc(OC)c1OC (stereo unspecified)", "Muscarinic acetylcholine receptor M5 (Homo sapiens)", -10.1),
    ("Cc1ccc(C(=O)NC2CCN(C(=O)Nc3ccccc3Cl)CC2)cc1", "Muscarinic acetylcholine receptor M5 (Homo sapiens)", -7.16),
    ("COc1ccc(COC(=O)N/N=C(\\C)CC(=O)Nc2ccc(Cl)cc2)cc1", "Muscarinic acetylcholine receptor M5 (Homo sapiens)", -3.42),
]

Lookup result for CC(CCc1ccccc1)NC(=O)COC(=O)c1ccc(F)cc1 (stereo unspecified) ; measured activation: -4.05

Recorded result, `CCOc1ccc(C(=O)NC2CCN(S(=O)(=O)CC)CC2)cc1` , activation: 11.7

For this molecule ( `Cc1ccc(C(=O)NC2CCN(C(=O)Nc3ccc(F)cc3)CC2)cc1` ), measured activation is -2.54

activation in this record for CN(C)c1ccc(/C=N/NC(=O)C(O)c2ccc(Br)cc2)cc1 (stereo unspecified) : 20.2

---

# targetDesc: Muscarinic acetylcholine receptor M5 (Homo sapiens) (UniProt P08912)
# protocolDescription: human M5 muscarinic receptor positive allosteric modulators, primary screen, CHO-K1 cells, Fluo-8 calcium fluorescence (AID 624038)
# setupConditions: CHO-K1 hM5, Fluo-8 calcium, ACh EC20 PAM; at 3 µM; 0% = ACh EC20, 100% = ACh EC100
Out of some 360,000 compounds screened, about 1,100 (0.31%) were called active.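 How the source made its calls: active means activation above the run cutoff, the mean activation of all test compounds plus 3 SD (cut at about 18% in these data); inactive means the rest.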 Only a selection was taken, and actives are over-represented in it overall.
# output must be one of 1 = active, -1 = inactive

Take a look at these entries with their results.
# compound, classification
measured = [
    ("CCN(CCn1cccn1)C(=O)CC1C(=O)NCCN1Cc1cccc(OC)c1OC (stereo unspecified)", -1),
    ("Cc1ccc(Br)c(NS(=O)(=O)c2cccc(C(=O)N3CCNC(=O)C3)c2)c1", -1),
    ("Cc1ccc(S(=O)(=O)N(C)C)cc1NC(=O)COC(=O)/C=C/c1cccs1", -1),
    ("N#CC1=C(N)OC2=C(C(=O)CCC2)C1C1CC=CCC1 (stereo unspecified)", -1),
    ("Cc1cc(C)c2nc(N(CCN(C)C)C(=O)/C=C/c3cccs3)sc2c1", 1),
    ("C=CC[C@@H](CC(=O)N[C@@H](CO)Cc1ccccc1)C(=O)N[C@H](COC(=O)[C@H](CC=C)CC(=O)OC(C)(C)C)Cc1ccccc1", -1),
    ("CC(NC(=O)C(=O)Nc1nccs1)c1ccccc1 (stereo unspecified)", 1),
    ("NC1=C([N+](=O)[O-])C(c2ccccc2)C2=C(CCCC2=O)O1 (stereo unspecified)", 1),
    ("CC(=O)NC(CC(=O)Nc1nccs1)c1ccccc1 (stereo unspecified)", -1),
    ("Cc1ccc2[nH]c(=O)c(COC(=O)c3ccccn3)cc2c1", -1),
]

Hey, what did the test say about Cc1c(Cl)cccc1NC(=O)CC1SC(=NCC2CCCO2)NC1=O (stereo unspecified) ?
-1
